Assay: Cytotoxicity assay (MTT) in macrophages
Assay type: cell-based
Settings: mouse, J774.G8 macrophages; 48 h of treatment, MTT; tested 6.25–200 µM
OBSERVED_PROPERTY: CC50 at 48 h

CC50 at 48 h measured on C#CCN(c1nc(-c2cccc([N+](=O)[O-])c2)no1)C1CCCCC1 [Ox7] = 197 µM

CC50 at 48 h measured on C#CCN(c1nc(-c2ccc([N+](=O)[O-])cc2)no1)C1CCCCC1 [Ox6] = > 200 µM

CC50 at 48 h measured on O=[N+]([O-])c1cccc(-c2noc(NC3CCCCC3)n2)c1 [Ox2] = > 200 µM

CC50 at 48 h measured on C#CCN(c1nc(-c2ccccc2)no1)C1CCCCC1 [Ox5] = 160 µM

CC50 at 48 h measured on O=[N+]([O-])c1ccc(-c2noc(NC3CCCCC3)n2)cc1 [Ox3] = > 200 µM

CC50 at 48 h measured on COc1ccc(-c2noc(NC3CCCCC3)n2)cc1 [Ox1] = > 200 µM

----------
Test: Cytotoxicity assay (MTT) in fibroblasts
Format: cell-based
Conditions: mouse; 48 h of treatment, MTT; tested 6.25–200 µM; read-out: CC50 L929
OBSERVED_PROPERTY: CC50 at 48 h

CC50 at 48 h measured on Cc1ccc(-c2noc(NC3CCCCC3)n2)cc1 = > 200 µM

----------
Assay: Cytotoxicity assay (MTT) in peritoneal macrophages
Format: cell-based, BALB/c mice
Details: BALB/c, mouse, peritoneal macrophages (PeM); peritoneal macrophages, estimated; read-out: CC50 for PeMs
OBSERVED_PROPERTY: CC50 at 48 h (µM)
Unit µM implied. Number only.

CC50 at 48 h measured on COc1ccc(-c2noc(NC3CCCCC3)n2)cc1 = 617

----------
Assay: Cytotoxicity assay (MTT) in macrophages
Type: cell-based
Settings: mouse; 48 h of treatment, MTT; tested 6.25–200 µM; read-out: CC50 J774.G8
OBSERVED_PROPERTY: CC50 at 48 h

CC50 at 48 h measured on Cc1ccc(-c2noc(NC3CCCCC3)n2)cc1 = > 200 µM

----------
Please go through the items and note down their melting point.

melting point measured on C#CCN(c1nc(-c2ccccc2)no1)C1CCCCC1 [Ox5] = 112 to 114 °C

melting point measured on c1ccc(-c2noc(NC3CCCCC3)n2)cc1 [Ox] = 125 to 127 °C

melting point measured on C#CCN(c1nc(-c2ccc([N+](=O)[O-])cc2)no1)C1CCCCC1 [Ox6] = 108 to 110 °C

melting point measured on COc1ccc(-c2noc(NC3CCCCC3)n2)cc1 [Ox1] = 109 to 110 °C

melting point measured on O=[N+]([O-])c1ccc(-c2noc(NC3CCCCC3)n2)cc1 [Ox3] = 201 to 203 °C

melting point measured on C#CCN(c1nc(-c2cccc([N+](=O)[O-])c2)no1)C1CCCCC1 [Ox7] = 94 to 96 °C

melting point measured on O=[N+]([O-])c1cccc(-c2noc(NC3CCCCC3)n2)c1 [Ox2] = 131 to 133 °C

----------
Please go through the items and note down their IC50.
Tested on: L. infantum promastigotes
Assay: Promastigote viability (CellTiter-Glo ATP)
Type: cell-based, L. infantum (BH46 strain)
Conditions: Leishmania infantum; promastigotes, 48 h of treatment; read-out: IC50 Pro
Unit µM implied. Number only.

IC50 measured on O=[N+]([O-])c1cccc(-c2noc(NC3CCCCC3)n2)c1 = 220

IC50 measured on C#CCN(c1nc(-c2ccc([N+](=O)[O-])cc2)no1)C1CCCCC1 = 92.2

IC50 measured on COc1ccc(-c2noc(NC3CCCCC3)n2)cc1 = 32.9

IC50 measured on C#CCN(c1nc(-c2ccccc2)no1)C1CCCCC1 = 84.7

IC50 measured on C#CCN(c1nc(-c2cccc([N+](=O)[O-])c2)no1)C1CCCCC1 = 98.2

IC50 measured on O=[N+]([O-])c1ccc(-c2noc(NC3CCCCC3)n2)cc1 = 336

Measured values drawn from paper PMC11478322 for this set.
